Where do the numbers come from? From ChEMBL document CHEMBL1157646.

Overview of recorded inhibition at 72 h, 10 µM for various molecules
- Protocol: Toxicity in mouse B16-4A5 cells assessed as inhibition of cell proliferation at 10 uM in presence of 1 mM theophylline after 72 hrs by WST8 dye reduction assay
- Type: cell-based
Respond with the bare value in %.

Here's what some known entries look like.
| Molecule | inhibition at 72 h, 10 µM, % |
| --- | --- |
| COc1ccc([C@H]2Oc3c(OC)cc(/C=C/CO)cc3[C@@H]2CO)cc1OC [Hierochin B] | 10.9 |
| COc1cc([C@H]2Oc3c(OC)cc(/C=C/CO)cc3[C@@H]2CO)ccc1O | -1.6 |
| COc1cc(C(O)C(CO)Oc2ccc(/C=C/C=O)cc2OC)ccc1O (stereo not drawn) | 68.6 |
| COc1cc([C@H]2Oc3c(OC)cc(/C=C/C=O)cc3[C@@H]2CO)ccc1O | 13.6 |
| O=c1c(O)c(-c2ccc(O)cc2)oc2cc(O)cc(O)c12 [KAEMPFEROL] | 13 |

The measured inhibition at 72 h, 10 µM associated with COc1cc(/C=C/C=O)ccc1O [CONIFERYL ALDEHYDE] reads -0.5

// field: inhibition at 72 h, 10 µM; key: O=c1cc(-c2ccc(O)c(O)c2)oc2cc(O)cc(O)c12 [LUTEOLIN] ; value = 4

* * *

- Protocol: Effect on TRP2 mRNA expression in mouse B16-4A5 cells assessed as TRP2 mRNA/beta-actin mRNA expression ratio at 30 uM in presence of 1 mM theophylline after 72 hrs by RT-PCR
- Type: functional
Readout kind: Ratio
# output: bare number, no unit

| Chemical string | Ratio |
| --- | --- |
| COc1cc([C@@H]2Oc3ccc([C@H]4Oc5cc(O)cc(O)c5C(=O)[C@@H]4O)cc3O[C@H]2CO)ccc1O | 0.64 |

Measured Ratio of COc1cccc(-c2cc(=O)c3ccccc3o2)c1N : 1.69

# Ratio of COc1cc([C@H]2Oc3cc([C@H]4Oc5cc(O)cc(O)c5C(=O)[C@@H]4O)ccc3O[C@@H]2CO)ccc1O = 1.6

Short answer for COc1cc([C@@H]2Oc3cc([C@H]4Oc5cc(O)cc(O)c5C(=O)[C@@H]4O)ccc3O[C@H]2CO)ccc1O : Ratio was 1.03

GET /value?item= COc1cc([C@H]2Oc3ccc([C@H]4Oc5cc(O)cc(O)c5C(=O)[C@@H]4O)cc3O[C@@H]2CO)ccc1O &field=Ratio returns 0.36

* * *

- Measurement target: Tyrosinase (Agaricus bisporus)
- Protocol: Inhibition of mushroom tyrosinase assessed as inhibition of melanin production from dopachrome by autoxidation at 100 uM
Active and inactive are the calls of the source. The rule behind the calls is not given here.
Readout kind: inhibition

Sample records with inhibition:
| Molecule | inhibition |
| --- | --- |
| O=c1c(O)c(-c2ccc(O)cc2)oc2cc(O)cc(O)c12 | inactive |
| COc1cc(C(O)C(CO)Oc2ccc(/C=C/CO)cc2OC)ccc1O (stereo not drawn) | inactive |
| O=Cc1ccc(O)c(O)c1 | inactive |
| COc1cc([C@@H]2Oc3ccc([C@H]4Oc5cc(O)cc(O)c5C(=O)[C@@H]4O)cc3O[C@H]2CO)ccc1O | inactive |
| O=C1C[C@@H](c2ccc(O)cc2)Oc2cc3oc4cc(O)c(O)cc4c3c(O)c21 | inactive |
| COc1cc([C@H]2Oc3cc([C@H]4Oc5cc(O)cc(O)c5C(=O)[C@@H]4O)ccc3O[C@@H]2CO)ccc1O | inactive |
| COc1ccc([C@@H]2Oc3c(O)cc(/C=C/C=O)cc3[C@H]2CO)cc1OC | inactive |

As a next step, examine the molecule that follows.
So, COc1cc([C@H]2Oc3ccc([C@H]4Oc5cc(O)cc(O)c5C(=O)[C@@H]4O)cc3O[C@@H]2CO)ccc1O ? Its inhibition was inactive

* * *

- Protocol: Toxicity in mouse B16-4A5 cells assessed as inhibition of cell proliferation in presence of 1 mM theophylline after 72 hrs by WST8 dye reduction assay
- Type: cell-based
Readout kind: IC50 at 72 h

Data point: COc1cc([C@@H]2Oc3cc([C@H]4Oc5cc(O)cc(O)c5C(=O)[C@@H]4O)ccc3O[C@H]2CO)ccc1O [SILYBIN B] ; IC50 at 72 h = > 100 µM

Entry COc1cc(C(O)C(CO)Oc2ccc(/C=C/C=O)cc2OC)ccc1O (configuration not stated) — recorded IC50 at 72 h = 6.9 µM

IC50 at 72 h reported for this molecule O=c1cc(-c2ccc(O)c(O)c2)oc2cc(O)cc(O)c12 [LUTEOLIN] : > 100 µM

response.value for COc1ccc([C@H]2Oc3c(OC)cc(/C=C/CO)cc3[C@@H]2CO)cc1OC [Hierochin B] (field: IC50 at 72 h) = > 100 µM

Sure, the documented IC50 at 72 h for COc1cc([C@H]2Oc3cc([C@H]4Oc5cc(O)cc(O)c5C(=O)[C@@H]4O)ccc3O[C@@H]2CO)ccc1O [SILYBIN A] is > 100 µM

Given item COc1cc([C@H]2Oc3c(OC)cc(/C=C/C=O)cc3[C@@H]2CO)ccc1O , the value recorded as its IC50 at 72 h is > 100 µM

Looking up COc1cc([C@H]2Oc3c(OC)cc(/C=C/CO)cc3[C@@H]2CO)ccc1O , I see its IC50 at 72 h listed as > 100 µM

* * *

- Protocol: Toxicity in mouse B16-4A5 cells assessed as inhibition of cell proliferation at 3 uM in presence of 1 mM theophylline after 72 hrs by WST8 dye reduction assay
- Type: cell-based
Readout kind: inhibition at 72 h, 3 µM (%)
Expressed in %, but write only the number.

| Compound | Units text | inhibition at 72 h, 3 µM |
| --- | --- | --- |
| COc1cc([C@H]2Oc3c(OC)cc(/C=C/CO)cc3[C@@H]2CO)ccc1O | % | 0.3 |
| O=Cc1ccc(O)c(O)c1 [PROTOCATECHUALDEHYDE] | % | -4.7 |
| O=c1c(O)c(-c2ccc(O)cc2)oc2cc(O)cc(O)c12 [KAEMPFEROL] | % | 10.2 |
| COc1cc([C@H]2Oc3c(OC)cc(/C=C/C=O)cc3[C@@H]2CO)ccc1O | % | 5.5 |

So, O=Cc1ccc(O)cc1 [4-HYDROXYBENZALDEHYDE] ? Its inhibition at 72 h, 3 µM was -13.6

* * *

Some molecules, each annotated with its measured inhibition.
- Measurement target: Tyrosinase (Agaricus bisporus) (UniProt O42713)
- Protocol: Inhibition of mushroom tyrosinase at 1 uM
Express the result in % but write the number alone.

Take a look at these entries with their results.
| Molecule | Measurement target | inhibition / % |
| --- | --- | --- |
| COc1cc([C@H]2Oc3cc([C@H]4Oc5cc(O)cc(O)c5C(=O)[C@@H]4O)ccc3O[C@@H]2CO)ccc1O [SILYBIN A] | Tyrosinase (Agaricus bisporus) (UniProt O42713) | 8.4 |
| O=c1cc(-c2ccc(O)c(O)c2)oc2cc(O)cc(O)c12 [LUTEOLIN] | Tyrosinase (Agaricus bisporus) (UniProt O42713) | 6.4 |
| COc1cc([C@@H]2Oc3ccc([C@H]4Oc5cc(O)cc(O)c5C(=O)[C@@H]4O)cc3O[C@H]2CO)ccc1O [ISOSILYBIN B] | Tyrosinase (Agaricus bisporus) (UniProt O42713) | 4.2 |
| O=c1c(O)c(-c2ccc(O)c(O)c2)oc2cc(O)cc(O)c12 [QUERCETIN] | Tyrosinase (Agaricus bisporus) (UniProt O42713) | 3.5 |
| COc1cc(/C=C/C=O)ccc1O [CONIFERYL ALDEHYDE] | Tyrosinase (Agaricus bisporus) (UniProt O42713) | 1.6 |

Recorded result, O=Cc1ccc(O)c(O)c1 [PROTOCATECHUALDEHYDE] , inhibition: 3.1

Documented inhibition of COc1cc([C@H]2Oc3ccc([C@H]4Oc5cc(O)cc(O)c5C(=O)[C@@H]4O)cc3O[C@@H]2CO)ccc1O [ISOSILYBIN A] : 5.1

What the record says about COc1cc([C@@H]2Oc3cc([C@H]4Oc5cc(O)cc(O)c5C(=O)[C@@H]4O)ccc3O[C@H]2CO)ccc1O [SILYBIN B] : inhibition is 5.7

Documented inhibition of O=C1C[C@@H](c2ccc(O)cc2)Oc2cc3oc4cc(O)c(O)cc4c3c(O)c21 [ANASTATIN A] : 6.4

* * *

- Measurement target: Tyrosinase (Agaricus bisporus) (UniProt O42713)
- Sequence (whole entry): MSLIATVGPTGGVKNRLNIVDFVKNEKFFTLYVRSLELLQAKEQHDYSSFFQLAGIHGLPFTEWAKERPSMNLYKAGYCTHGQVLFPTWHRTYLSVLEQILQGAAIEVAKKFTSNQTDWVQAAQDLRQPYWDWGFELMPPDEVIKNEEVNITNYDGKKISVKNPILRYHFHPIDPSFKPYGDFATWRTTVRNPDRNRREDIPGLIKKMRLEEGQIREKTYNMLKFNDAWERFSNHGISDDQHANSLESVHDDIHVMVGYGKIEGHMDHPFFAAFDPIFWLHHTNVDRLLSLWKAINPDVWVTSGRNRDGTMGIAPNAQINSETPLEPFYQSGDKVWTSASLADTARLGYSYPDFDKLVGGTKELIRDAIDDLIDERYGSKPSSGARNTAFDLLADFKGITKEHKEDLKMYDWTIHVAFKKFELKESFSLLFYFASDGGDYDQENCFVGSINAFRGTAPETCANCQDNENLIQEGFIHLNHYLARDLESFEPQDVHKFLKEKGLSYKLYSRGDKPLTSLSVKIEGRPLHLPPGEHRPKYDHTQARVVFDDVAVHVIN
- Protocol: Inhibition of mushroom tyrosinase at 3 uM
Readout kind: inhibition (%)
Use % as the unit, but write only the number.

| Chemical string | Measurement target | Units text | Observed measurement |
| --- | --- | --- | --- |
| COc1cc([C@H]2Oc3ccc([C@H]4Oc5cc(O)cc(O)c5C(=O)[C@@H]4O)cc3O[C@@H]2CO)ccc1O | Tyrosinase (Agaricus bisporus) (UniProt O42713) | % | 7 |
| O=Cc1ccc(O)c(O)c1 | Tyrosinase (Agaricus bisporus) (UniProt O42713) | % | 2.3 |
| COc1cc([C@@H]2Oc3cc([C@H]4Oc5cc(O)cc(O)c5C(=O)[C@@H]4O)ccc3O[C@H]2CO)ccc1O | Tyrosinase (Agaricus bisporus) (UniProt O42713) | % | 8.4 |

The reported value for O=C1C[C@@H](c2ccc(O)cc2)Oc2cc3oc4cc(O)c(O)cc4c3c(O)c21 in terms of inhibition is 6.7

Measured inhibition, COc1cc([C@@H]2Oc3ccc([C@H]4Oc5cc(O)cc(O)c5C(=O)[C@@H]4O)cc3O[C@H]2CO)ccc1O : 4.8

Per the record, COc1cc(/C=C/C=O)ccc1O has inhibition of 4.2

The compound listed as O=c1c(O)c(-c2ccc(O)c(O)c2)oc2cc(O)cc(O)c12 has a reported inhibition of 4.8

// field: inhibition; key: COc1cc([C@H]2Oc3cc([C@H]4Oc5cc(O)cc(O)c5C(=O)[C@@H]4O)ccc3O[C@@H]2CO)ccc1O ; value = 10.3

The compound listed as O=c1cc(-c2ccc(O)c(O)c2)oc2cc(O)cc(O)c12 has a reported inhibition of 7.1
